Data origin: patent US8575135B2

# System: stable HCV 1a RLuc replicon cells (genotype 1a H77 replicon)
# protocol summary: microbe, parasite or virus in culture
# Assay type: cell-based
# assay setup: Hepatitis C virus, read-out: 1a (nM)
Each record is given yes (1) if its reported EC50 is strictly below 0.01 nM. Records at or above 0.01 nM are given no (0).

[ask] Find out if reported EC50 for "COC(=O)N[C@H](C(=O)N1C[C@@H](COC(F)F)C[C@H]1c1nc2ccc3cc4c(cc3c2[nH]1)OCc1cc(-c2cnc([C@@H]3CC[C@H](C)N3C(=O)[C@@H](NC(=O)OC)C(C)C)[nH]2)ccc1-4)C(C)C" is less than 0.01 nM
[reply] yes (1)

[ask] In plain terms, does "COC[C@H]1C[C@@H](c2ncc(-c3ccc4c(c3)COc3cc5c(ccc6nc([C@@H]7CCCN7C(=O)[C@@H](NC(=O)OC)C(C)C)[nH]c65)cc3-4)[nH]2)N(C(=O)[C@H](N)c2ccccc2)C1" come in under 0.01 nM for EC50?
[reply] no (0)

[ask] Lab note: EC50 threshold 0.01 nM. Does this compound come in strictly under it? CCC(C)C(NC(=O)OC)C(=O)N1CC(COC)C[C@H]1c1nc2ccc3cc4c(cc3c2[nH]1)OCc1cc(-c2cnc(C3C[C@H](C)CN3C(=O)[C@@H](NC(=O)OC)C(C)CC)[nH]2)ccc1-4 (stereo in doubt)
[reply] no (0)

[ask] Dear reviewer, please state whether "CC[C@@H](C)[C@H](NC(=O)OC)C(=O)N1C[C@@H](COC)C[C@H]1c1nc2ccc3cc4c(cc3c2[nH]1)OCc1cc(-c2cnc([C@@H]3CC[C@H](C)N3C(=O)[C@@H](NC(=O)OC)[C@H](C)CC)[nH]2)ccc1-4" has EC50 strictly beneath 0.01 nM.
[reply] no (0)

[ask] Record CCC(C)[C@H](NC(=O)OC)C(=O)N1C[C@@H](C)CC1c1ncc(-c2ccc3c(c2)COc2cc4c(ccc5nc([C@@H]6CC(COC)CN6C(=O)[C@H](NC(=O)OC)c6ccccc6)[nH]c54)cc2-3)[nH]1 (stereo in doubt) : is its EC50 strictly below 0.01 nM?
[reply] no (0)

[ask] Find out if reported EC50 for CCC(C)[C@H](NC(=O)OC)C(=O)N1C[C@@H](C)CC1c1ncc(-c2ccc3c(c2)COc2cc4c(ccc5nc([C@@H]6CC(COC)CN6C(=O)[C@@H](NC(=O)OC)C(C)C)[nH]c54)cc2-3)[nH]1 (stereo in doubt) is less than 0.01 nM
[reply] no (0)

[ask] Determine whether this compound shows EC50 lower than 0.01 nM (ties excluded): "CC[C@H](C)[C@H](NC(=O)OC)C(=O)N1[C@@H](C)CC[C@H]1c1ncc(-c2ccc3c(c2)COc2cc4c(ccc5nc([C@@H]6C[C@H](COC)CN6C(=O)[C@H](NC(=O)OC)c6ccccc6)[nH]c54)cc2-3)[nH]1"
[reply] yes (1)

[ask] For this compound, is EC50 lower than 0.01 nM? "CC[C@H](C)[C@H](NC(=O)OC)C(=O)N1C[C@@H](COC)C[C@H]1c1nc2ccc3cc4c(cc3c2[nH]1)OCc1cc(-c2cnc([C@@H]3CC[C@H](C)N3C(=O)[C@@H](NC(=O)OC)[C@@H](C)CC)[nH]2)ccc1-4"
[reply] yes (1)
